Target: SHP2 (Homo sapiens, UniProt Q06124)
Construct: endogenous in cells; host or cells: MV 411
Sequence (Q06124 whole entry): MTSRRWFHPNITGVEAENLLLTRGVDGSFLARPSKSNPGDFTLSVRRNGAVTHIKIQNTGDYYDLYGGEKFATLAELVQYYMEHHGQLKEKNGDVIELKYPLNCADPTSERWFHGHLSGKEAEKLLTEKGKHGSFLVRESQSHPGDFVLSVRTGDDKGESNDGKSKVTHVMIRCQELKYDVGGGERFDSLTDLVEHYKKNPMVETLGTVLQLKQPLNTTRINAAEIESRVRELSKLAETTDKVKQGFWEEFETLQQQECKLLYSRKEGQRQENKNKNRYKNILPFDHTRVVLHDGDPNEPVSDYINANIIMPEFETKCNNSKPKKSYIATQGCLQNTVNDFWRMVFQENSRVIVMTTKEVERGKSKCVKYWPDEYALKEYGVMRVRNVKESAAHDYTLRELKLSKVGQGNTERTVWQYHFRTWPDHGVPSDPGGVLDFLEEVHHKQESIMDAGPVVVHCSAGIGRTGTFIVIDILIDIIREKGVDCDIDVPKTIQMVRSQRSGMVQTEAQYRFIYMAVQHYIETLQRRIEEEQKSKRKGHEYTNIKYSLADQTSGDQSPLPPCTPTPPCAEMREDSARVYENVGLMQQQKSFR
Experiment: SHP2 degradation in MV 411 cells by Western blot (median degradation concentration)
Format: cell-based
Details: 24 hours with compound, SHP-2 antibody Western blot, concentration of the median degradation from exposure gray scale
Text: Reagent: complete DMEM medium, Gibco products. Fetal bovine serum, manufactured byThermoFisher. Trypsin, manufactured byThermoFisher. The SHP-2 antibody is produced by CST. […] Measuring method: took the cells growing in the logarithmic phase, collected and suspended the cells in DMEM containing 10% fetal calf serum, gently blowed and beated the cells into single cell suspension by using a pipette, and counted the living cells under a microscope. […]
recorded_metric: DC50

Before answering, review these 2 worked examples.
• CCOc1cc2oc(-c3ccc(OCCOCCOCCOCCOc4cccc5c4C(=O)N(C4CCC(=O)NC4=O)C5=O)cc3Cl)cc(=O)c2cc1-c1cc(C(N)=O)cc(C2CCCCC2)c1 (stereo not drawn) = > 250 nM
• CCOc1cc2oc(-c3ccc(OCCOCCOCCOCCOc4cccc5c4C(=O)N(C4CCC(=O)NC4=O)C5=O)cc3Cl)cc(=O)c2cc1CCC(=O)Nc1ccccc1 (stereo not drawn) = > 250 nM

From here, focus on the item given below.
// query DC50 value for entry CCOc1cc2oc(-c3ccc(NCCOCCOCCOCCOc4cccc5c4C(=O)N(C4CCC(=O)NC4=O)C5=O)cc3Cl)cc(=O)c2cc1CN1CCCC[C@@H]1C(N)=O (stereo partly drawn) > 250 nM
